test system: RABV; experiment: microbe, parasite or virus in culture; assay type: cell-based; settings: Lyssavirus rabies, 10 min, read-out: IC50 RABV
parameter_measured: pIC50
pIC50 here: minus log base 10 of the concentration, concentration in moles per litre.

>  <chemical_structure>
CCN1C(=S)O/C(=C\c2ccc(-c3ccccc3OC)o2)C1=S

>  <result_value>
6.59

$$$$

Now for another entry.
Look up pIC50: "C=CCN1C(=O)/C(=C/c2ccc(-c3ccccc3)o2)SC1=S" 5.28

====

assay: Membrane partition into POPC LUV (fluorescence)
Catalogue of Kp at 10 min, 50 µM readings, one per entry.
Kindly provide the number alone.

Reference set, count: 2
>  <chemical_structure>
CCN1C(=S)O/C(=C\c2ccc(-c3ccccc3OC)o2)C1=S

>  <Kp at 10 min, 50 µM>
580

$$$$
>  <chemical_structure>
CCN1C(=S)O/C(=C\c2ccc(-c3ccc(N(C)C)cc3)o2)C1=S

>  <Kp at 10 min, 50 µM>
2700

$$$$

API: the following record is the query input.
Name the recorded Kp at 10 min, 50 µM for "CCN1C(=S)O/C(=C\c2ccc(-c3c(OC)cc(OC)cc3OC)o2)C1=S" . 1130

====

# Tmax listing for each entry below
experiment: Pharmacokinetics in mice; conditions: female, Balb/c, mouse, in vivo

A selection of reference data follows.
>  <molecule>
CCN1C(=S)O/C(=C\c2ccc(-c3c(OC)cc(OC)cc3OC)o2)C1=S [JL122]

>  <result_value>
15 to 60 min

$$$$
>  <molecule>
CCN1C(=S)O/C(=C\c2ccc(-c3ccc(OC)cc3OC)o2)C1=S [JL109]

>  <result_value>
15 to 60 min

$$$$

Next, consider the following molecule.
Tmax lookup needed for CCN1C(=S)O/C(=C\c2ccc(-c3ccc(N(C)C)cc3)o2)C1=S [JL118] , thanks. 15 to 60 min

====

assay: Pharmacokinetics in mice; conditions: female, Balb/c, mouse, in vivo
parameter_measured: clearance

Data request, read-out clearance, for "C=CCN1C(=O)/C(=C/c2ccc(-c3ccccc3)o2)SC1=S" ~700 mL/min/kg

====

assay: Pharmacokinetics in mice; details: female, Balb/c, mouse, in vivo, po, 100 mg/kg
Listed here: items and their measured AUC(0-t).
Quote the value and follow it with the unit of measurement.

// AUC(0-t) lookup, key: CCN1C(=S)O/C(=C\c2ccc(-c3ccc(OC)cc3OC)o2)C1=S [JL109] 538 ng·h/mL

Same for CCN1C(=S)O/C(=C\c2ccc(-c3c(OC)cc(OC)cc3OC)o2)C1=S [JL122] 1270 ng·h/mL

// same read-out, input: CCN1C(=S)O/C(=C\c2ccc(-c3ccc(N(C)C)cc3)o2)C1=S [JL118] 1160 ng·h/mL

====

test system: NDV; assay: microbe, parasite or virus in culture; assay type: cell-based, Newcastle disease virus; settings: read-out: IC50 ± SD (nM) (N=x) NDV
parameter_measured: IC50
Number plus unit, in that order.

Which IC50 is reported for this compound? CCN1C(=O)/C(=C/c2ccc(-c3ccccc3)o2)OC1=S [JL101] 8800 nM

====

assay: Membrane partition into HIV membrane-like mixture LUV (fluorescence)
parameter_measured: Kp at 10 min, 50 µM
Lab note: record just the number, no unit beside it.

Fill blank: measured Kp at 10 min, 50 µM of the molecule CCN1C(=S)O/C(=C\c2ccc(-c3c(OC)cc(OC)cc3OC)o2)C1=S [JL122] is ____. 267

====

Overview of recorded IC50 for various compounds
tested on: RVFV; test: microbe, parasite or virus in culture; assay type: cell-based, Rift Valley fever MP-12 (vaccine strain); details: Rift Valley fever virus, 10 min, read-out: IC50 RVFV
Just the number in µM, nothing appended.

>  <chemical_structure>
C=CCN1C(=O)/C(=C/c2ccc(-c3ccccc3)o2)SC1=S

>  <unit>
µM

>  <IC50>
0.02

$$$$

Given "CCN1C(=S)O/C(=C\c2ccc(-c3ccccc3OC)o2)C1=S" , state its recorded IC50. 0.003

====

test: Pharmacokinetics in mice; details: female, Balb/c, mouse, in vivo
MRT last: recorded values

>  <chemical_structure>
CCN1C(=S)O/C(=C\c2ccc(-c3ccc(OC)cc3OC)o2)C1=S

>  <MRT last>
4.5 to 10 h

$$$$
>  <chemical_structure>
CCN1C(=S)O/C(=C\c2ccc(-c3c(OC)cc(OC)cc3OC)o2)C1=S

>  <MRT last>
4.7 to 7 h

$$$$

Find the recorded MRT last belonging to "CCN1C(=S)O/C(=C\c2ccc(-c3ccc(N(C)C)cc3)o2)C1=S" and report it. 5.3 to 11.4 h

====

experiment: Singlet oxygen quantum yield measurements; assay type: physicochemical; details: in CD2Cl2, excitation 355 nm; error is one standard deviation
Listed here: items and their measured 1O2 QY 355 nm.
Lab note: record the figure alone, no unit after it.

The examples below pair each entry with its known result.
>  <compound>
C=CCN1C(=O)/C(=C/c2ccc(-c3ccccc3)o2)SC1=S [LJ001]

>  <1O2 QY 355 nm>
0.20

$$$$
>  <compound>
CCN1C(=S)O/C(=C\c2ccc(-c3ccc(N(C)C)cc3)o2)C1=S [JL118]

>  <1O2 QY 355 nm>
0.14

$$$$
>  <compound>
CCN1C(=S)O/C(=C\c2ccc(-c3c(OC)cc(OC)cc3OC)o2)C1=S [JL122]

>  <1O2 QY 355 nm>
0.43

$$$$
>  <compound>
C=CCN1C(=O)S/C(=C\c2ccc(-c3ccccc3)o2)C1=O [LJ025]

>  <1O2 QY 355 nm>
0

$$$$
>  <compound>
CCN1C(=S)O/C(=C\c2ccc(-c3ccccc3OC)o2)C1=S [JL103]

>  <1O2 QY 355 nm>
0.36

$$$$

# context switch: different compound, same 1O2 QY 355 nm
Any idea what 1O2 QY 355 nm was measured for CCN1C(=S)O/C(=C\c2ccc(-c3ccc(OC)cc3OC)o2)C1=S [JL109] ? 0.37

====

test: Pharmacokinetics in mice; details: female, Balb/c, mouse, in vivo, ip, 10 mg/kg, Cmax, ip 10 mg/kg
parameter_measured: Cmax (ng/mL)
# unit: ng/mL | format: bare number

Cmax lookup needed for "CCN1C(=S)O/C(=C\c2ccc(-c3c(OC)cc(OC)cc3OC)o2)C1=S" , thanks. 132

====

Quick list: IC50 per entry.
tested on: HSV; test: microbe, parasite or virus in culture; assay type: cell-based, Herpes simplex virus-1; details: Human alphaherpesvirus 1, 10 min, read-out: IC50 ± SD (nM) (N=x) HSV
// return numeric value only (unit: nM, not printed)

Example entries begin here.
>  <chemical_structure>
CCN1C(=S)O/C(=C\c2ccc(-c3ccc(N(C)C)cc3)o2)C1=S

>  <unit>
nM

>  <IC50>
10.1

$$$$
>  <chemical_structure>
CCN1C(=S)O/C(=C\c2ccc(-c3c(OC)cc(OC)cc3OC)o2)C1=S

>  <unit>
nM

>  <IC50>
2.4

$$$$
>  <chemical_structure>
C=CCN1C(=O)/C(=C/c2ccc(-c3ccccc3)o2)SC1=S

>  <unit>
nM

>  <IC50>
35.3

$$$$
>  <chemical_structure>
CCN1C(=S)O/C(=C\c2ccc(-c3ccc(OC)cc3OC)o2)C1=S

>  <unit>
nM

>  <IC50>
0.7

$$$$

// switching to the query compound
Form field: IC50 recorded for "CCN1C(=S)O/C(=C\c2ccc(-c3ccccc3OC)o2)C1=S" with HSV (enter value) 1.9

====

assay: Pharmacokinetics in mice; settings: female, Balb/c, mouse, in vivo, po, 100 mg/kg, Cmax, po 100 mg/kg
parameter_measured: Cmax (ng/mL)
The reply should be a number in ng/mL, with the unit left off.

What does the record list as Cmax for "CCN1C(=S)O/C(=C\c2ccc(-c3ccc(OC)cc3OC)o2)C1=S" ? 78.2

====

# reported IL / Iw; entries follow
assay: Membrane partition into HIV membrane-like mixture LUV (fluorescence); conditions: HIV-like mixture LUV; fluorescence intensity ratio from curve fitting
Form: value (number only, do not type unit).

Worked set:
>  <chemical_structure>
CCN1C(=S)O/C(=C\c2ccc(-c3c(OC)cc(OC)cc3OC)o2)C1=S

>  <parameter_measured>
IL / Iw

>  <result_value>
613.7

$$$$
>  <chemical_structure>
C=CCN1C(=O)/C(=C/c2ccc(-c3ccccc3)o2)SC1=S

>  <parameter_measured>
IL / Iw

>  <result_value>
2.41

$$$$
>  <chemical_structure>
C=CCN1C(=O)S/C(=C\c2ccc(-c3ccccc3)o2)C1=O

>  <parameter_measured>
IL / Iw

>  <result_value>
3.60

$$$$
>  <chemical_structure>
CCN1C(=S)O/C(=C\c2ccc(-c3ccccc3OC)o2)C1=S

>  <parameter_measured>
IL / Iw

>  <result_value>
68.29

$$$$

Look up IL / Iw for this compound: "CCN1C(=S)O/C(=C\c2ccc(-c3ccc(N(C)C)cc3)o2)C1=S" 488
